# assayedTarget: RORc ligand binding domain (Homo sapiens)
# Construct: host or cells: E. coli
# Sequence (P51449 269-508 limits assumed, species assumed): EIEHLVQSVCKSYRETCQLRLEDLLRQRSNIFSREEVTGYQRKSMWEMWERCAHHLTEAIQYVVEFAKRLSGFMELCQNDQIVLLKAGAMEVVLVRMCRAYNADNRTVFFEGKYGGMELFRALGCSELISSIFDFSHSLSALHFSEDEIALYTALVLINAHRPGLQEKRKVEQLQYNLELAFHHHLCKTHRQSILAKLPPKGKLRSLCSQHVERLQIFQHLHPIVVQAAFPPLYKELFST
# experimentSummary: In Vitro RORc Ligand Binding Assay (25-[3H]hydroxycholesterol radioligand filtration)
# testSettings: In Vitro RORc Ligand Binding Assay; Table 4; read-out: RORc IC50
pIC50: −log10 of the molar value.
Entries and their measured pIC50 follow.

molecule: C[C@H]1CCC(c2ccccc2)S(=O)(=O)N1Cc1ccc(N2CCC(c3n[nH]c(=O)o3)CC2)cc1F (single isomer, unassigned) [Example 144]
pIC50: 7.68
//
molecule: C[C@H]1CCC(c2ccccc2)S(=O)(=O)N1Cc1ccc(C(=O)N(C)C2CCS(=O)(=O)C2)cc1 (stereo partly drawn) [Example 289]
pIC50: 5.76
//
molecule: C[C@H]1CCC(c2ccccc2)S(=O)(=O)N1Cc1ccc(N2CCC(c3cnn[nH]3)CC2)cc1F (single isomer, unassigned) [Example 254]
pIC50: 8.05
//
molecule: CC(=O)N1CCN(c2ccc(CN3[C@@H](C)CC(c4ccccc4)S3(=O)=O)c(F)c2)CC1 (single isomer, unassigned) [Example 64]
pIC50: 6.15
//
molecule: Cc1ncc2n1CCN(c1ccc(CN3[C@@H](C)CCC(c4ccccc4)S3(=O)=O)c(F)c1)C2 (stereo partly drawn) [Example 374]
pIC50: 6.78
//
molecule: C[C@H]1CCC(c2ccccc2)S(=O)(=O)N1Cc1ccc(N2CCN(C(=O)C3CC3)CC2)cc1F (single isomer, unassigned) [Example 59]
pIC50: 7.82
